Experiment Summary: in vivo
Condition Label: ICR, mouse, plasma, iv, 3 mg/kg
Description: Half life in ICR mouse plasma at 3 mg/kg, iv by LC/MS/MS analysis
Measured Parameter: half-life (min)
Give just the numeric value; min need not be written.

Task item: half-life for COc1ncc(-c2cc(O[C@@H]3CCOC3)c3nc(N)nc(C)c3c2)cc1NS(=O)(=O)c1ccc(F)cc1F ?
Reply: 32.4

Task item: half-life for CNc1nc(C)c2cc(-c3cnc(OC)c(NS(=O)(=O)c4ccc(F)cc4F)c3)cc(O[C@@H]3CCOC3)c2n1 ?
Reply: 31.8

Task item: half-life for CNc1nc(C)c2cc(-c3cnc(OC)c(NS(=O)(=O)c4ccc(F)cc4F)c3)cc(OC3CCOCC3)c2n1 ?
Reply: 37.2

---

Experiment Summary: in vivo
Condition Label: ICR, mouse, in vivo, po, 30 mg/kg
Measured Parameter: Cmax (ng/mL)
Give just the numeric value; ng/mL need not be written.

Task item: Cmax for COc1ncc(-c2cc(OC3CCOCC3)c3nc(N)nc(C)c3c2)cc1NS(=O)(=O)c1ccc(F)cc1F ?
Reply: 4290

---

Experiment Summary: in vivo
Condition Label: ICR, mouse, plasma, iv, 3 mg/kg
Description: Clearance in ICR mouse plasma at 3 mg/kg, iv by LC/MS/MS analysis
Measured Parameter: clearance (mL/min/kg)
Give just the numeric value; mL/min/kg need not be written.

Task item: clearance for CNc1nc(C)c2cc(-c3cnc(OC)c(NS(=O)(=O)c4ccc(F)cc4F)c3)cc(O[C@@H]3CCOC3)c2n1 ?
Reply: 34.5

Task item: clearance for COc1ncc(-c2cc(O[C@@H]3CCOC3)c3nc(N)nc(C)c3c2)cc1NS(=O)(=O)c1ccc(F)cc1F ?
Reply: 54.9

Task item: clearance for CNc1nc(C)c2cc(-c3cnc(OC)c(NS(=O)(=O)c4ccc(F)cc4F)c3)cc(OC3CCOCC3)c2n1 ?
Reply: 14.3

---

Condition Label: mouse, in vivo, po, 30 mg/kg
Would you mind telling me the reported AUCt of each entry?
Give just the numeric value; ng·h/g need not be written.

Task item: AUCt for COc1ncc(-c2cc(O[C@@H]3CCOC3)c3nc(N)nc(C)c3c2)cc1NS(=O)(=O)c1ccc(F)cc1F ?
Reply: 28.6

Task item: AUCt for CNc1nc(C)c2cc(-c3cnc(OC)c(NS(=O)(=O)c4ccc(F)cc4F)c3)cc(OC3CCOCC3)c2n1 ?
Reply: 895

Task item: AUCt for CNc1nc(C)c2cc(-c3cnc(OC)c(NS(=O)(=O)c4ccc(F)cc4F)c3)cc(O[C@@H]3CCOC3)c2n1 ?
Reply: 742

Task item: AUCt for COc1ncc(-c2cc(OC3CCOCC3)c3nc(N)nc(C)c3c2)cc1NS(=O)(=O)c1ccc(F)cc1F ?
Reply: 234

---

Tested on: NCI-H460;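 note: cytotoxicity determined with an MTT assay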
Experiment Summary: cells
Assay type: functional, cell-based
Condition Label: Homo sapiens, NCI-H460, 96 h
Description: Cytotoxicity against human NCI-H460 cells after 96 hrs by MTT assay
Measured Parameter: IC50 (µM)
Give just the numeric value; µM need not be written.

Task item: IC50 for CNc1nc(C)c2cc(-c3cnc(OC)c(NS(=O)(=O)c4ccc(F)cc4F)c3)cc(OCC3CCOC3)c2n1 (centres undefined) ?
Reply: 0.31

Task item: IC50 for COCCOc1cc(-c2cnc(OC)c(NS(=O)(=O)c3ccc(F)cc3F)c2)cc2c(C)nc(N)nc12 ?
Reply: 0.2

Task item: IC50 for CNc1nc(C)c2cc(-c3cnc(OC)c(NS(=O)(=O)c4ccc(F)cc4F)c3)cc(OC3CCOC(C)(C)C3)c2n1 (centres undefined) ?
Reply: 0.25

Task item: IC50 for COc1ncc(-c2cc(OC3CCOCC3)c3nc(N)nc(C)c3c2)cc1NS(=O)(=O)C1CC1 ?
Reply: 0.93

Values were extracted from ChEMBL document CHEMBL4145625.
